biological target: HCV Core 134-171-TT peptide (ALRZ-9 peptide) (HCV-1); experiment: SPR, captured mAb;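 also: Anti-HCV Core mAbs from hybridoma supernatants held on a rabbit anti-mouse IgG CM5 surface, peptide flowed over 3 min then 4 min dissociation, duplicate concentrations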
RESULT TYPE: koff (s⁻¹)
Give bare numbers, in s⁻¹.

Completed entries (count: 2):
INSERT INTO results (binder, unit_info, recorded_value) VALUES
  ('HCV 208B-281 (antibody, V domains shown) VH: QGQLQQSGAELVKPGASVKLSCKTSGFTFSSSYISWLKQRPGQSLEWIAWIYAGTGGTNYNQKFTDKAQLTVDTSSSTAYMQFSSLTTEDSAIYYCAISGTGFIYWGQGTLVTVSA VL: DVLMTQTPLSLPVSLGDQASISCRSSQSLVHNNGNTYLEWFLQKPGQSPKLLIYKVSNRFSGVPDRFSGSGSGTDFTLKISRVEAEDLGVYYCFQGSHVPFTFGSGTKLEIKR', 's⁻¹', 0.00025),
  ('HCV 208A-134 (antibody, V domains shown) VH: QGQMQQSGAELAKPGASVKLSCKTSGFTFSSSYISWLKQKPGQSLEWIAWIYAGTGNTNYNQKFTDKAQLTVDTSSSTAYMQLSSLTTEDSAIYYCAISGTGFTYWGQGTLVTVSA VL: EVLMTQSPLSLPVSLGDQASISCRSSQSLEHTNGNTYLEWFLQRPGQPPKLLIYKVSSRFSGVPDRFSGSGSGTDFTLKISRVEAEDLGVYYCFQGSHVPFTFGSGTKLAIKR', 's⁻¹', '3.8e-05');

// moving on: another record for koff
Task: Which value of koff has been reported for HCV 208B-251 (antibody, V domains shown) VH: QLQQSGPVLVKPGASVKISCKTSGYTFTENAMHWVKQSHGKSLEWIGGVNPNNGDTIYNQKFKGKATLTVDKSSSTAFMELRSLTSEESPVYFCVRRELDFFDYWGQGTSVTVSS VL: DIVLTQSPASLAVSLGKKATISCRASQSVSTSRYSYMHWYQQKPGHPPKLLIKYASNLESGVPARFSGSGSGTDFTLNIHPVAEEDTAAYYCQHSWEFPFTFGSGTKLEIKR in the records?
Output: 0.00065
